System: Plasmodium falciparum
Assay: GSK_TCMDC: Inhibition of Plasmodium falciparum 3D7 in whole red blood cells, using parasite LDH activity as an index of growth. Test compounds present at 2uM
Type: functional
Value Type: Inhibition (%)

{"Molecule": "O=C(O)C(F)(F)F.O=S(=O)(NCCN1CCCC1)c1ccc(-c2ccc(CNCc3ccccc3)cc2)cc1F", "Observed Result": 83}
{"Molecule": "COc1ccc(O)c(-c2sc(N=C(N)N)nc2-c2ccccc2)c1", "Observed Result": 100}
{"Molecule": "O=c1cc(NCCC(CNCc2ccoc2)NCc2cc(Br)cc(Br)c2)[nH]c2ccccc12 (stereo not given)", "Observed Result": 92}
{"Molecule": "CC(C)CN(C)Cc1ccc(-c2ccc(-c3nc4ccccc4[nH]3)s2)cc1", "Observed Result": 97}
{"Molecule": "COc1ccc2nccc([C@@H](O)CN3CCC(NCc4cc5oc(=O)n(C)c5cc4F)CC3)c2c1.O=C(O)C(=O)O", "Observed Result": 99}

---

Below, each entry is listed alongside its reported Inhibition.
System: Plasmodium falciparum
Experiment: GSK_TCMDC: Inhibition of Plasmodium falciparum 3D7 in whole red blood cells, using parasite LDH activity as an index of growth. Test compounds present at 2uM
Assay type: functional
Value Type: Inhibition (%)

{"Molecule": "O=C(c1ccccc1[N+](=O)[O-])N(Cc1ccccc1)c1ccccn1", "Observed Result": 91}
{"Molecule": "CCOc1ccc(Br)cc1/C=C/C(=O)Nc1ccc2c(c1)CCCN(C)C2.O=C(O)C(F)(F)F", "Observed Result": 90}
{"Molecule": "COc1ccc(Br)cc1/C=C/C(=O)Nc1ccc2c(c1)CCCN(C)C2", "Observed Result": 84}
{"Molecule": "Cc1ccccc1C1CCN(C2CCC(NC(=O)c3ccc(-c4cc(C(F)(F)F)nn4C)s3)CC2)CC1 (stereo not given)", "Observed Result": 98}
{"Molecule": "O=C(O)c1cccc2c(-c3ccncc3)cccc12", "Observed Result": 97}
{"Molecule": "CCCCCCCC1CC(CC(=O)Nc2ccnc3ccc(OC)cc23)CN1 (stereo not given)", "Observed Result": 90}
{"Molecule": "CC(=O)Nc1cccc(Nc2nccc(-c3c(-c4cccc(NC(=O)c5c(F)cccc5F)c4)nn4ncccc34)n2)c1", "Observed Result": 96}
{"Molecule": "COCCNCc1ccc(-c2cccc(CNc3ccc(OC)cc3)c2)cc1.O=C(O)C(F)(F)F", "Observed Result": 94}
{"Molecule": "CC(CCc1ccc(OCc2ccccc2)cc1)NCC(O)c1ccccc1 (stereo not given)", "Observed Result": 86}
{"Molecule": "CN(C)C(=O)CN1CCN(c2ncnc(N3CCc4c([nH]c5ccccc45)[C@@H]3c3ccc4c(c3)CCO4)n2)CC1", "Observed Result": 99}

---

Below, each entry is listed alongside its reported Inhibition.
System: Plasmodium falciparum
Assay: GSK_TCMDC: Inhibition of Plasmodium falciparum Dd2 in whole red blood cells, using parasite LDH activity as an index of growth. Test compounds present at 2uM
Assay type: functional

{"Sample Smiles": "O=C(/C=C/c1ccc(Cl)c(Cl)c1)NCCCCCN1CCC(NC(=O)NC2CCCCC2)CC1", "Inhibition / %": 44}
{"Sample Smiles": "CS(=O)(=O)O.N#Cc1ccc(CNCCCCCCNCc2ccc(C#N)c3ccccc23)c2ccccc12", "Inhibition / %": 96}
{"Sample Smiles": "CCN(CC)CCN(Cc1ccc(-c2ccc(C(F)(F)F)cc2)cc1)C(=O)Cn1c(CCc2cccc(F)c2F)nc(=O)c2ccc(C(F)(F)F)cc21.O=C(O)C(O)C(O)C(=O)O", "Inhibition / %": 55}
{"Sample Smiles": "CNC(=O)c1c(NC(=O)c2cccs2)sc2c1CCCC2", "Inhibition / %": 2}
{"Sample Smiles": "CN(c1ccc(F)cc1)S(=O)(=O)c1ccc(Cl)c(C(=O)Nc2cccc(C#N)c2)c1", "Inhibition / %": 58}
{"Sample Smiles": "Cc1ccc(O)cc1Nc1ccnc2ccc(-c3cccc(CN(C)C)c3)cc12", "Inhibition / %": 99}
{"Sample Smiles": "CN1CCCN(Cc2cccc(-c3cccc(NC(=O)c4cccc(Cl)c4)c3)c2)CC1.O=C(O)C(F)(F)F", "Inhibition / %": 20}
{"Sample Smiles": "CS(=O)(=O)c1ccc(CCNCc2ccc(-c3ccc(CN(C(=O)C4CCCC4)C4CCN(Cc5ccccc5)CC4)cc3)nc2)cc1.O=C(O)C(F)(F)F", "Inhibition / %": 20}
